Provide the reported GI50 of each item.
tested on: A549 cells; test: Antiproliferative SRB assay (NCI protocol), 48 h; type: cell-based; details: Homo sapiens; A549 (lung), SRB, 48 h drug exposure; read-out: 50% growth inhibition (GI50) ± SD, A549
Answers are plain numbers, in µM.

# Molecule, GI50 [µM]
measured = [
    ("C=C1C(=O)O[C@@H]2C[C@H](C)[C@@H]3C[C@H](OC(C)=O)[C@H](OC(C)=O)[C@@]3(C)C[C@H]12 [Compound 4]", 24),
    ("C=C1C(=O)O[C@@H]2C[C@H](C)[C@@H]3C[C@H](O[Si](c4ccccc4)(c4ccccc4)C(C)(C)C)[C@H](O)[C@@]3(C)C[C@H]12 [Compound 7]", 1.6),
    ("C=C1C(=O)O[C@@H]2C[C@H](C)[C@@H]3C[C@H](O[Si](C)(C)C)[C@H](O[Si](C)(C)C)[C@@]3(C)C[C@H]12 [Compound 5]", 2.4),
]

Turning now to a further molecule:
(Q) // output GI50; input C=C1C(=O)OC2CC(C)C3CC(O)C(O)C3(C)CC12 (stereo not shown) [Compound 1, cumanin] ; system A549 cells
(A) 19

###

test system: SW1573 cells; test: Antiproliferative SRB assay (NCI protocol), 48 h; type: cell-based, human; conditions: Homo sapiens; SW1573 (non-small cell lung), SRB, 48 h drug exposure; read-out: 50% growth inhibition (GI50) ± SD, SW1573
Experimental Endpoint: GI50 (µM)
Numbers only, in µM.

# Compound, GI50 / µM
measured = [
    ("C=C1C(=O)O[C@@H]2C[C@H](C)[C@@H]3C[C@H](O[Si](c4ccccc4)(c4ccccc4)C(C)(C)C)[C@H](O)[C@@]3(C)C[C@H]12", 1.5),
    ("C=C1C(=O)O[C@@H]2C[C@H](C)[C@@H]3C[C@H](O[Si](C)(C)C)[C@H](O[Si](C)(C)C)[C@@]3(C)C[C@H]12", 1.8),
    ("C=C1C(=O)O[C@@H]2[C@H]1CC[C@H](C)[C@@]1(O)C=CC(=O)[C@@]21C", 6.4),
    ("C=C1C(=O)O[C@@H]2C[C@@H](C)[C@@H]3C=CC(=O)[C@@]3(C)[C@@H](OC(C)=O)[C@H]12", 4.7),
    ("C=C1C(=O)O[C@@H]2C[C@H](C)[C@@H]3C[C@H](O[Si](C)(C)C(C)C)[C@H](O[Si](C)(C)C(C)C)[C@@]3(C)C[C@H]12", 1.2),
]

Please state, for each entry, its recorded GI50.
1. C=C1C(=O)OC2CC(C)C3CC(OCc4cn(Cc5ccccc5)nn4)C(OCc4cn(Cc5ccccc5)nn4)C3(C)CC12 (stereo not drawn)
2. C=C1C(=O)O[C@@H]2C[C@@H](C)[C@@H]3C=CC(=O)[C@@]3(C)[C@@H](O[Si](C)(C)C)[C@H]12
3. C#CCOC1CC2C(C)CC3OC(=O)C(=C)C3CC2(C)C1OCC#C (stereo not drawn)
4. C=C1C(=O)O[C@@H]2C[C@H](C)[C@@H]3C[C@H](OC(C)=O)[C@H](OC(C)=O)[C@@]3(C)C[C@H]12

(A)
[4.7, 0.28, 20, 11]

Batch: GI50 for all items listed.
1. C=C1C(=O)OC2CC(C)C3CC(O)C(O)C3(C)CC12 (stereo not drawn)
2. C=C1C(=O)O[C@@H]2C[C@@H](C)[C@@H]3C=CC(=O)[C@@]3(C)[C@@H](O[Si](C)(C)C(C)C)[C@H]12
3. C=C1C(=O)OC2CC(C)C3CC(OCc4cn(Cc5ccccc5)nn4)C(O)C3(C)CC12 (stereo not drawn)

(A)
1: 14; 2: 0.19; 3: 32

###

system: SW1573 cells; assay: Antiproliferative SRB assay (NCI protocol), 48 h; type: cell-based, human; settings: splenocyte CC50 versus SW1573 GI50
I'd appreciate it if you could supply Selectivity Index, SW1573 values for the items below.
Answers are plain numbers.

Use these answered entries as a reference point.
# Compound, Selectivity Index, SW1573
measured = [
    ("C=C1C(=O)O[C@@H]2C[C@@H](C)[C@@H]3C=CC(=O)[C@@]3(C)[C@@H](O[Si](C)(C)C)[C@H]12 [Compound 13]", 3.9),
    ("C=C1C(=O)OC2CC(C)C3CC(OCc4cn(Cc5ccccc5)nn4)C(OCc4cn(Cc5ccccc5)nn4)C3(C)CC12 (stereo not drawn) [Compound 11]", 111.5),
]

# evaluate next
(Q) Give the measured Selectivity Index, SW1573 for C=C1C(=O)OC2CC(C)C3CC(O)C(O)C3(C)CC12 (stereo not drawn) [Compound 1, cumanin]
(A) 2.1

###

system: HBL100 cells; assay: Antiproliferative SRB assay (NCI protocol), 48 h; assay type: cell-based, human; settings: splenocyte CC50 versus HBL100 GI50
Experimental Endpoint: Selectivity Index, HBL100

Past entries and their recorded results:
# Compound, Selectivity Index, HBL100
measured = [
    ("C=C1C(=O)O[C@@H]2C[C@@H](C)[C@@H]3C=CC(=O)[C@@]3(C)[C@@H](O[Si](C)(C)C)[C@H]12 [Compound 13]", 3.0),
    ("C#CCOC1CC2C(C)CC3OC(=O)C(=C)C3CC2(C)C1OCC#C (stereo not shown) [Compound 9]", 4.9),
    ("C=C1C(=O)O[C@@H]2C[C@H](C)[C@@H]3C[C@H](O[Si](C)(C)C(C)C)[C@H](O[Si](C)(C)C(C)C)[C@@]3(C)C[C@H]12 [Compound 6]", 39.9),
]

(Q) Param request: Selectivity Index, HBL100 | system HBL100 cells | item C=C1C(=O)OC2CC(C)C3CC(O)C(O)C3(C)CC12 (stereo not shown) [Compound 1, cumanin]
(A) 1.4
